- system: human MC3 receptor (Homo sapiens, UniProt P41968)
- Construct: expressed in transfected cells; host or cells: FreeStyle 293-F cells (transient, electroporation)
- Sequence (P41968 whole entry): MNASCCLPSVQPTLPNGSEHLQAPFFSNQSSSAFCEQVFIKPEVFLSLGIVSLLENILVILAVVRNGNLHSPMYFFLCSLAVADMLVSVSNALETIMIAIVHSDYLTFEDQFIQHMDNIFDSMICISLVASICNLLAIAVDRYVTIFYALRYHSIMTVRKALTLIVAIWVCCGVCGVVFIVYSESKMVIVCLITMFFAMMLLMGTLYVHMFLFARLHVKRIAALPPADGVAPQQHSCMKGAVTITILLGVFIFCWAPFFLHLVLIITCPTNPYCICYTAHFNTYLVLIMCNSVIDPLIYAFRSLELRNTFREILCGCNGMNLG
- test: Human MC3 receptor activation, cAMP production in cells transiently expressing the receptor
- Type: cell-based
- experimental-conditions: FreeStyle 293-F cells expressing human MC3 receptor, α-MSH maximum = 100%
- Procedure: (1) Construction of Human MC Receptor-Expressing Vector […] Measurement was carried out by using a LANCE (registered trademark) Ultra cAMP Kit (PerkinElmer, Inc.) in accordance with the attached instructions. […] The amount of cAMP was calculated using EnVision (registered trademark) (PerkinElmer Inc.). […]
readout-name: pEC50
Note on units: pEC50 is unitless, being -log10 of a concentration expressed in mol/L.

Sample records with pEC50:
{"molecule": "CC(=O)N[C@@H](CC(C)(C)C)C(=O)N1CCN(C(=O)C2CN(C(C)(C)C)CC2c2ccc(Cl)cn2)[C@@H](C)C1 (stereo partly drawn)", "system": "human MC3 receptor (Homo sapiens, UniProt P41968)", "pEC50": 6.35}
{"molecule": "CC(=O)N[C@@H](CC(C)(C)C)C(=O)N1C[C@H](C)N(C(=O)[C@@H]2CN(C3CCOCC3)C[C@H]2c2ccc(Cl)cc2F)C[C@H]1C", "system": "human MC3 receptor (Homo sapiens, UniProt P41968)", "pEC50": 6.51}
{"molecule": "CC(=O)N[C@@H](CC(C)(C)C)C(=O)N1C[C@H](C)N(C(=O)C2CN(C(C)(C)C)CC2c2ccc(F)cc2)C[C@H]1C.Cl (stereo partly drawn)", "system": "human MC3 receptor (Homo sapiens, UniProt P41968)", "pEC50": 6.05}
{"molecule": "CC(=O)N[C@@H](Cc1ccc(Cl)cc1)C(=O)N1CCN(C(=O)[C@@H]2CN(C(C)(C)C)C[C@H]2c2ccc(F)cc2F)[C@@H](C)C1", "system": "human MC3 receptor (Homo sapiens, UniProt P41968)", "pEC50": 5.36}
{"molecule": "CC(=O)N[C@@H](CC(C)(C)C)C(=O)N1CCN(C(=O)[C@@H]2CN(C3CCOCC3)C[C@H]2c2ccc(Cl)cc2F)[C@@H](C)C1.Cl [Example 20, monohydrochloride]", "system": "human MC3 receptor (Homo sapiens, UniProt P41968)", "pEC50": 5.92}

Look up pEC50 for this molecule: CC(=O)N[C@H](C(=O)N1CCN(C(=O)[C@@H]2CN(C(C)(C)C)C[C@H]2c2ccc(F)cc2F)[C@@H](C)C1)C1CCCCC1.Cl [Example 6, monohydrochloride]
5.74
